Below, each entry is listed alongside its reported growth.
# System: SF-268 CNS
# TEST PROTOCOL: NCI-60 one-dose screen, 48 h (100 = growth as untreated, 0 = no growth, -100 = all killed)
# RUN PARAMETERS: 10 µM unless noted
Compounds without any hit were thinned out: in the full panel of roughly 83,000, 20% have a hit.

- COMPOUND: "COc1ccc2cc1Oc1ccc(cc1)C[C@H]1c3c(cc4c(c3Oc3cc5c(cc3OC)CCN(C)[C@@H]5C2)OCO4)CCN1C"
  growth (%): 36.4
- COMPOUND: "Fc1cc2c(cc1Cl)N(c1ncnc3ccc(-c4ccc5n[nH]nc5c4)cc13)CC2"
  growth (%): 69.5
- COMPOUND: "N#CC1=C(N)Oc2c(sc3c(Br)cccc23)C1c1ccc(Cl)cc1 (stereo not given)"
  growth (%): 20.2
- COMPOUND: "Nc1ncnc2c1C(c1ccc(Br)cc1)c1sc3c(F)cccc3c1O2 (stereo not given)"
  growth (%): 98.9
- COMPOUND: "COc1cc(-c2nccc3[nH]c(-c4ccc5cc[nH]c5c4)nc23)cc(OC)c1OC"
  growth (%): 19.3
